experimentalSystem: 5-hydroxytryptamine receptor 1A (Rattus norvegicus)
Sequence (P19327 whole entry): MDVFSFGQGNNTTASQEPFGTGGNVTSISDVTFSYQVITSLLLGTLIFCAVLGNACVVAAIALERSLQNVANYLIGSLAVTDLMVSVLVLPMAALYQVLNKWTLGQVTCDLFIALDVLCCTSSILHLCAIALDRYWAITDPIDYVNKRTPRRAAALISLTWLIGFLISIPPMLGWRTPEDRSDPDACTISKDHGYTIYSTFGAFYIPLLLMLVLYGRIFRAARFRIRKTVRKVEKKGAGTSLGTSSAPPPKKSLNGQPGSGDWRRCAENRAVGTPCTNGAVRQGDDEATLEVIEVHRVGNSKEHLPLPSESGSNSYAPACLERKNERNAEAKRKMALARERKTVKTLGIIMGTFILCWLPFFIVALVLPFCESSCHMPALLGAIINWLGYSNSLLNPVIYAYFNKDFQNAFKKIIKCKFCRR
Compiled from multiple publications: log10 of Ki readings for 5-hydroxytryptamine receptor 1A (Rattus norvegicus).
Lab note - Ki converted to log10 from values in nM.

Param item = COc1ccccc1N1CCN(Cc2cn(-c3ccccc3C)c3ccccc23)CC1 ; retrieve measured log10 of Ki. 1.18

Param item = O=C(c1ccc(Cl)c(Cl)c1)N1CCC(F)(CNCc2cccc(-n3cccn3)n2)CC1 ; retrieve measured log10 of Ki. -0.69

Param item = O=S(=O)(NCCCCN1CCN(c2ccc(Cl)cc2)CC1)c1cnc2ccccc2c1 ; retrieve measured log10 of Ki. 2.89

Param item = Cc1ccc(-c2nn(CCCCN3CCN(CC4COc5ccccc5O4)CC3)c(=O)c3ccccc23)cc1 (stereo not given) ; retrieve measured log10 of Ki. 3.29

Param item = COc1ccccc1N1CCN(CCCCC(=O)c2ccccc2O)CC1 ; retrieve measured log10 of Ki. 0.61

====

Compiled from multiple publications: Ki readings for UniProt P19327.
Report the value in nM with no unit label.

Param item = O=C1C2CCCN2C(=O)N1CCCCNCCOc1ccc2ccccc2c1 (centres undefined) ; retrieve measured Ki. 41

Param item = COc1ccccc1N1CCN(CCc2ccc(CN3CCCCC3=O)n2C)CC1.O=C(O)CCC(=O)O ; retrieve measured Ki. 1.4

Param item = CCCN(CCCCN1C(=O)CC2(CCCC2)CC1=O)[C@@H]1CCc2c(F)ccc(OS(=O)(=O)C(F)(F)F)c2C1 ; retrieve measured Ki. 0.9

Param item = O=C(NCCN1CCN(C(c2ccccc2)c2ccc(Cl)cc2)CC1)c1ccccn1 (centres undefined) ; retrieve measured Ki. 540

Param item = O=c1c2cc(-c3ccccc3)[nH]c2n(Cc2ccccc2)c(=O)n1CCN1CCN(c2ccccc2Cl)CC1 ; retrieve measured Ki. 1020

Param item = CN1CCc2ccc(OCCCN3CCN(c4ccc(F)cc4)CC3)cc2C1=O ; retrieve measured Ki. 158

Param item = Cc1ccccc1N1CCN(CCCN2CC(=O)N3CCCC3C2=O)CC1.Cl (centres undefined) ; retrieve measured Ki. 27

Param item = CCNc1nc(CNCC2(F)CCN(C(=O)c3ccc(F)c(Cl)c3)CC2)ccc1C ; retrieve measured Ki. 0.148

Param item = COc1ccccc1N1CCN(CCCCN2C(=O)NC3(CCC(c4ccccc4)CC3)C2=O)CC1 (centres undefined) ; retrieve measured Ki. 3

====

experimentalSystem: 5-hydroxytryptamine receptor 1A (Rattus norvegicus)
Sequence (P19327 whole entry): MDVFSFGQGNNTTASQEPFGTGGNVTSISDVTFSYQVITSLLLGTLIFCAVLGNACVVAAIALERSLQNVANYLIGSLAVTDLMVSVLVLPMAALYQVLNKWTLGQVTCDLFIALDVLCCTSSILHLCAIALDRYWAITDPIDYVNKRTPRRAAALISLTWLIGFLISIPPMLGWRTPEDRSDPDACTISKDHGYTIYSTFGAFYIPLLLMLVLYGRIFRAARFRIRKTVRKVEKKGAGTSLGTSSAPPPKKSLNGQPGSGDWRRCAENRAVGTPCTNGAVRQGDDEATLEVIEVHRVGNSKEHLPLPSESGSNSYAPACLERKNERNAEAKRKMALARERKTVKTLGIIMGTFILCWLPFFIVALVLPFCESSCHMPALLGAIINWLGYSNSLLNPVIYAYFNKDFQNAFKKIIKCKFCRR
Compiled from multiple publications: pKi readings for 5-hydroxytryptamine receptor 1A (Rattus norvegicus).
In plain terms, pKi is the concentration in mol/L turned into minus its base-10 logarithm.

Param item = O=C(N[C@H]1CC(=O)N(CCCCN2CCN(c3cccc(Cl)c3)CC2)C1=O)c1ccccc1 ; retrieve measured pKi. 7.39

Param item = c1ccc2oc(-c3ccc(OCCCN4CCC(c5nc6ccccc6o5)CC4)cc3)nc2c1 ; retrieve measured pKi. 6.25

Param item = O=C1CC2(CCCC2)CC(=O)N1CCCN1CCN(c2ncccn2)CC1 ; retrieve measured pKi. 6.67

Param item = COc1ccccc1N1CCN(CCCN2C(=O)CC(=C(c3ccccc3)c3ccccc3)C2=O)CC1 ; retrieve measured pKi. 6.18

Param item = COc1ccccc1N1CCN(CCNC(=O)[C@@H]2CCC(=O)N2C(=O)c2ccccc2)CC1 ; retrieve measured pKi. 5.82

Param item = O=C1CC(=C(c2ccccc2)c2ccccc2)C(=O)N1CCCCN1CCN(c2ccc(F)cc2)CC1 ; retrieve measured pKi. 8.48

Param item = COc1cccc(OC)c1OCCNC[C@H]1COc2cccc(O)c2O1.Cl ; retrieve measured pKi. 9.00

Param item = COc1ccc(CCCCNCCOc2cc(F)cc3c2OC(C)(C)CC3)cc1 ; retrieve measured pKi. 9.36

Param item = O=c1ccc(-n2ccc3ccccc32)nn1CCCCN1CCN(c2cccc(C(F)(F)F)c2)CC1 ; retrieve measured pKi. 7.21

Param item = COc1ccccc1N1CCN(CCCCNC(=O)c2ccc([N+](=O)[O-])cc2)CC1 ; retrieve measured pKi. 8.36
